Consider the following compounds; for each one, report its pIC50.
biological target: E. coli (Ec) DHFR (Escherichia coli (strain K12), UniProt P0ABQ4); test: E. coli DHFR enzyme inhibition (NADPH oxidation, 340 nm); format: biochemical; conditions: Table 3
Numbers only, as −log10 of the molar value.

Examples with answers:
CCc1nc(N)nc(N)c1C#CCc1cc2c(c(-c3ccc(O)cc3)c1)OCO2 [Compound 37] :: 5.60
CCc1nc(N)nc(N)c1C#CCc1cc2c(c(-c3cc(F)c(O)c(F)c3)c1)OCO2 [Compound 39] :: 6.20

With those in mind, consider the next compound.
[Q] Give E. coli (Ec) DHFR (Escherichia coli (strain K12), UniProt P0ABQ4) pIC50 for CCc1nc(N)nc(N)c1C#CCc1cc2c(c(-c3ccc(O)c(F)c3)c1)OCO2 [Compound 38]
[A] 5.90

* * *

molecular target: human (Hu) DHFR (Homo sapiens (Human), UniProt P00374)
quantity: pIC50
Answers are plain numbers, as −log10 of the molar value.

[Q] pIC50 for CCc1nc(N)nc(N)c1C#CC(SC)c1cc(-c2ccc(C(=O)O)cc2)ccc1OC (stereo not shown) [Compound 29] ?
[A] 6.58

* * *

Answer each item with its documented pIC50.
target: E. coli (Ec) DHFR (Escherichia coli (strain K12)); experiment: E. coli DHFR enzyme inhibition (NADPH oxidation, 340 nm); type: biochemical; settings: Table 2
Answers are plain numbers, as −log10 of the molar value.

Below: 5 compounds and their reported pIC50.
CCc1nc(N)nc(N)c1C#CC(SC)c1cc(-c2ccc(C(=O)O)cc2)ccc1OC (stereo not shown) :: 6.75
CCc1nc(N)nc(N)c1C#CCc1cc(-c2ccccc2C(=O)O)ccc1OC [Compound 13] :: 6.71
CCc1nc(N)nc(N)c1C#CCc1cc(OC)cc(-c2ccc(C(=O)O)cc2)c1 :: 6.29
CCc1nc(N)nc(N)c1C#C[C@H](C)c1cc(-c2ccc(C(=O)OC)cc2)ccc1OC :: 7.47
CCc1nc(N)nc(N)c1C#CCc1cc(-c2ccc(C(=O)O)cc2)ccc1OC :: 7.05

Go through the items and report each one's pIC50.
1. CCc1nc(N)nc(N)c1C#CCc1cc(-c2ccccc2C(=O)O)ccc1OC [Compound 14]
2. CCc1nc(N)nc(N)c1C#C[C@@H](C)c1cc(-c2ccc(C(=O)OC)cc2)ccc1OC

[A]
[6.28, 6.76]

* * *

Kindly supply the reported MIC Mtb C-31 values for the records listed here.
system: Mtb C-31; format: cell-based, Mycobacterium tuberculosis; details: MDR strain
Give bare numbers, in µg/mL.

Known MIC Mtb C-31 results, listed for orientation:
CCc1nc(N)nc(N)c1C#CCc1cc(-c2cncn2C)ccc1OC :: 8
CCc1nc(N)nc(N)c1C#CC(C)c1cc2c(c(-c3cncn3C)c1)OCO2 (stereo not drawn) :: 8
CCc1nc(N)nc(N)c1C#CC(C)c1cc(OC)cc(-c2ccc(C(=O)O)cc2)c1 (stereo not drawn) :: 8

// each listed compound needs a value for MIC Mtb C-31
1. CCc1nc(N)nc(N)c1C#C[C@H](C)c1cc2c(c(-c3ccncc3)c1)OCO2
2. CCc1nc(N)nc(N)c1C#CCc1ccc(OC)c(-c2ccc(C(=O)O)cc2)c1

[A]
[16, 8]

* * *

target: MtbDHFR (Mycobacterium tuberculosis (strain ATCC 25618 / H37Rv)); experiment: M. tuberculosis DHFR enzyme inhibition; assay type: biochemical
quantity: IC50
Please provide the amount together with its unit, number first.

Worked examples, 3 molecules total:
CCc1nc(N)nc(N)c1C#CCc1cc(-c2cncn2C)ccc1OC :: 126 nM
CCc1nc(N)nc(N)c1C#CCc1cc(-c2ccc(C(=O)O)cc2)ccc1OC :: 173 nM
CCc1nc(N)nc(N)c1C#C[C@@H](C)c1cc(-c2ccncc2)ccc1OC :: 73 nM

Batch request: IC50 per item, same order as input.
1. CCc1nc(N)nc(N)c1C#C[C@H](C)c1cc2c(c(-c3ccncc3)c1)OCO2
2. CCc1nc(N)nc(N)c1C#CCc1ccc(OC)c(-c2ccc(C(=O)O)cc2)c1
3. CCc1nc(N)nc(N)c1C#CCc1cc(-c2ccccc2C(=O)O)ccc1OC

[A]
["206 nM", "460 nM", "311 nM"]

Numbers sourced from patent US10870625B2.
